test system: MS2 coat protein; test: apparent KD of MS2 coat protein; designed switch direction (-1 OFF switch, 1 ON switch): 1; higher = weaker reporter binding; conditions: input ligand: microRNA oligo, concentration not stated

| entry-sequence | apparent KD of MS2 coat protein (nM) |
| --- | --- |
| AGGCCACCGGAAGGAUAUGGCACCUUAUUGGUGCCAGAAGGUCCAACAUGAGGAUCACCCAUGUGGGUGGGUUCUAAUGAACAU [Fiskers NG1 - 2] (Eterna round: R96, puzzle: Same State NG 1) | 37.6 |
| GCGGAGAGGUAAGGAUAUCCAUGGAAGAAACAUGAGGAUCACCCAUGUAGGAAGAAGACUAGGAGGGAGAAGGUACCGGGACGC [AK SSNG2-V2-20.1] (Eterna round: R96, puzzle: Same State NG 2) | 26.2 |
| CUGAGCAAUCGAGGAUAUCACGUCGAAUAGACGUGAGAAGGCGAUCAUAACAUGAGGAUCACCCAUGUAUUACAUGAAGCUCAG [SSNG1/4-A1] (Eterna round: R96, puzzle: Same State NG 1) | 12.8 |
| AAAGACAUGAGGAUCACCCAUGUACAGACAAACCAGUCUGCACAGGAUAUCCCGAGGAUAACUCGGGAGAAGGGUGGCCAAAAC [Onveenes] (Eterna round: R96, puzzle: Same State NG 3) | 18.9 |
| AGCCUGAGUCGAGGAUAUUAUGGAUCAAUUAAUACAUGAGGAUCACCCAUGUAAUUAAUUUAACAUGAGAAGGUGACUCAGGCA [SSNG2/10-B1] (Eterna round: R96, puzzle: Same State NG 2) | 8.66 |
